target: RSV F protein of subtype A (strain A2) on recombinant mKate-RSV virus (Respiratory syncytial virus subtype A …, UniProt P03420 26-574); assay: cell-based or functional assay
Recorded Neut IC50 (µg/ml) subtype A for the following binders
valueType: Neut IC50 (µg/ml) subtype A (µg/mL)

>>> recordedresult("ADI-18960 (antibody, V domains shown, full-length IgG from yeast; also called Antibody Number 311; Ab # 311) VH: QVQLQESGPGLVKPSETLSLTCSVSGGSITNVNYYWGWIRQPPGKGLEWIGSIYYNGNTYYNPSLQSRVTMSVDTSKNHFSLRLTSVTAADTAVYFCAREGPNWELLNAFDIWGQGTTVTVSS VL: DIQVTQPPSVSVAPGQTARITCGGNNIGSKNVHWYQQKPGRAPVLVVYEDTHRPSGIPERFSGSNSGNTATLTISRVEAGDEADYYCQVWDTSSDHVVFGGGTKLTVL")
0.034
>>> recordedresult("ADI-18935 (antibody, V domains shown, full-length IgG from yeast) VH: QVQLQESGPGLVKPSQTLSLTCTVSGRLLSSGDYYWSWIRQSPGRGLEWIGYVYHSGTTSYNPSLKSRITMTVDTSKNQFNLRLTSVTAADTAVYYCARDLGYSSSSPAFYYGIDFWGPGTMVTVSS VL: EIVLTQSPATLSLSPGQRATLSCRASQSVGNYLAWYQQKPGQAPRLLIYDASNRVTGIPARFSGSGSGTDFTLTISRLESEDFAVYYCQQRSNGVLTFGGGTKVDIK")
0.779
>>> recordedresult("ADI-18919 (antibody, V domains shown, full-length IgG from yeast) VH: QVQLQESGPGLEKPSQTLSLTCTVSRGSIRIGGYFWSWIRQHPGKGLEWLGYISNDGATDYNPSLRSRLAISADTSKNQFSLTLRSVTAADTAIYYCARTSYAGRMLDRWGQGILVTVSS VL: DIRVTQSPVSLPVTPGEPASISCRSSQSLLHSNGNNYLDWYLQKPGQSPQLLIYMGSYRASGVPDRFSGSGSGTDFTLKISRVEAEDVGVYYCMQGLQIPWTFGQGTKLEIK")
0.123
>>> recordedresult("ADI-18902 (antibody, V domains shown, full-length IgG from yeast) VH: QVQLQESGPGLVKPSETLSLTCTVSGGSISGYYWSWIRQPPGRGLEWIGFIYYSGSTSYDSSLKSRVTISVDTSKNQFSLNLSSVTAADTAVYYCARSTWDYGDHFPFDYWGQGTLVTVSS VL: SYELTQPPSVSVAPGKTARITCGGNNIGIKDVHWYQLRPGQAPVLVISYDSDRPSGIPERFSGSNSGNTATLTISRVEAGDEADYFCQVWDSSPDHPYVFGTGTKLTVL")
0.024
>>> recordedresult("ADI-18942 (antibody, V domains shown, full-length IgG from yeast; also called Antibody Number 295; Ab # 295) VH: QVQLQESGPGRVKPSQTLSLTCTVSGVSVTINDYYWTWLRQSPGKGLEWIGNIYNSGSTYQNPSLQSRVTMSVDTAKNHFSLKLTSVTAADTAVYYCARDLGTANNYYFGMDVWGLGTTVTVSS VL: EIVMTQSPATLSLSPGERATLSCRASQSVSTYLAWYQQKPGQAPRLLIYNGSNRVTGTPARFSGSGSGTDFTLTISSVEPEDFAVYYCQQRSNWPPYTFGQGTKVEIK")
0.374
>>> recordedresult("ADI-18912 (antibody, V domains shown, full-length IgG from yeast) VH: EVQLVESGGGLVKPGGALRLSCAASGFSFRSYSMNWVRQAPGKGLEWVSSISSSSNYINYADSVKGRFSISRDNAKNSLYLQMNSLRAEDTAVYYCARDLLPVERGPAFDIWGQGTMVTVSS VL: SYELTQPPSVSGAPGQRVTISCTGSSSNIGAGYDVHWFQQLPGAAPKLLIYANSNRPSGVPDRFSGSKSGTSASLAITGLQAEDEADYYCQSYDSRLGGSVFGGGTKVTVL")
0.024
>>> recordedresult("ADI-18890 (antibody, V domains shown, full-length IgG from yeast) VH: QVQLVQSGAEVKRPGSSVKVSCKASGGTFRGYHISWLRQAPGQGLEWLGGITHLFGTVSYAPKFQGRVTITADASTGTLYMVLNSLKPEDTAIYYCARDAYEVWTGSYLPPFDYWGQGTLVTVSS VL: ETTLTQSPGTLSLSPGERATLSCRASQTVTSNYLAWYQQKPGQAPRLLIYDALTRATGIPDRFSGSGSGTDFTLTISRLEPEDFALYYCQQYGSSFLTFGGGTKVDIK")
0.041
>>> recordedresult("ADI-18903 (antibody, V domains shown, full-length IgG from yeast) VH: EVQLVESGGEVKKPGASVKVSCRASGYTFRNYGLTWVRQAPGQGLEWMGWISAYNGNTNYAQKFQGRVTLTTDTSTSTAYMELRSLRSDDTAVYFCARDVPGHGAAFMDVWGTGTTVTVSS VL: ETTLTQSPLSLPVTLGQPASISCRSSQSLEASDTNIYLSWFQQRPGQSPRRLIYKISNRDSGVPDRFSGSGSGTHFTLRISRVEADDVAVYYCMQGTHWPPAFGQGTKLEIK")
0.036
>>> recordedresult("ADI-18966 (antibody, V domains shown, full-length IgG from yeast) VH: QVQLVQSGGGVVQPGRSLRLSCAASGFTFRNYGMHWVRQAPGKGLEWVAAASYDGSSKYFADAVKGRFSISRDNTKNTLSLQMTSLRAEDTAVYYCARDPGVGSYYNVVGMDVWGQGTTVTVSS VL: DIRLTQSPLSLPVTLGQPASISCRSSQSLVYSDGNTYLNWFQQRPGQSPRRLIYRVSHRDSGVPDRFSGSESGTDFTLKISRVEAEDVGVYYCMQGTHWPPTFGQGTKVEIK")
0.044
>>> recordedresult("ADI-18971 (antibody, V domains shown, full-length IgG from yeast; also called Antibody Number 319; Ab # 319) VH: EVQLVESGGGLVQRGGSLRLSCAASGFTFSGNAMSWVRQAPGKGLEWVASIGESATSAYYADSVKGRFTISRDDSKNTLYLQMNSLRPEDTAVYFCAKDRVGWFGEFDAFDFWGQGTMVTVSS VL: SYELTQPPSVSVAPGKTATISCGGNNIGGHKVHWYQQRPGQAPVLVIYYDNVRPSGIPERFSGSNSGNTATLTISRVEAGDEADFYCQVWDSRSEHVIFGGGTKVTVL")
0.039
